The reported measurements were obtained from PubChem BioAssay (NCI).

- System: OVCAR-4 ovarian
- protocolNotes: NCI-60 one-dose screen, 48 h (100 = growth as untreated, 0 = no growth, -100 = all killed)
- conditionsUsed: 10 µM unless noted
The panel holds about 83,000 compounds, 20% with a hit somewhere; the sample as a whole holds those more often.
quantity: growth (%)
Give just the numeric value; % need not be written.

Prompt line: Sample CC[C@H](Nc1ncnc2nc[nH]c12)c1nc2cccc(NCc3ccc(C(=O)NO)o3)c2c(=O)n1-c1ccccc1 — what was its growth?
Response line: 97.3

Prompt line: Bench note: what growth did CCCCCCCCCCCCCCCCNC(=S)N/N=C/c1ccc(OC)cc1 show?
Response line: 113

Prompt line: Please look up its growth: O=C1Nc2c(c(=O)n(-c3ccccc3)c3ccccc23)C(c2ccc(Cl)cc2)N1 (centres undefined)
Response line: 105

Prompt line: Name the recorded growth for O=C1CCNC1 .
Response line: 97.8

###

Please provide measured growth for the entries that follow.
- Test system: MDA-MB-435 melanoma
- protocolNotes: NCI-60 one-dose screen, 48 h (100 = growth as untreated, 0 = no growth, -100 = all killed)
- conditionsUsed: 10 µM unless noted
This is part of a sample that, as a whole, favours compounds with a hit. Of some 83,000 tested, about 20% had one in any assay.
Report the value in % with no unit label.

Prompt line: Query (molecule): OCC(O)C(O)CC1SCCS1 (configuration not stated) ; field requested: growth
Response line: 105

Prompt line: Recorded growth for Cc1nc(NC(=S)Nc2ccc(F)cc2)sc1C(=O)NNC(=S)Nc1ccc(F)cc1 , please?
Response line: 71.5

Prompt line: Recorded growth of CN1CCN(Cc2ccc(NC(=O)c3cncc(C#Cc4c(N)ncc5ccc(F)cc45)c3)cc2C(F)(F)F)CC1 , please.
Response line: -80.1

Prompt line: Request the reported growth associated with C=C1CCC2C3(C)COC(c4ccccc4)OC3CCC2(C)C1C/C=C1/C(=O)OCC1O (configuration not stated)
Response line: 72.8

Prompt line: Any idea what its growth is? The molecule is C/C=C/C/C=C/[C@H](C)C[C@H](O)[C@@H]1C[C@@H]2O[C@H]2/C=C/[C@H](O)[C@@H](O)/C=C/C[C@H](C)CC(=O)O1
Response line: 117

Prompt line: Tell me the measured growth of CC(=O)Nc1ccc(CC#N)cc1Br , please.
Response line: 104

Prompt line: Which growth is listed for O=C(Nc1ccc(-n2cc(-c3ccncc3)c(-c3ccc(Cl)c(O)c3)n2)cc1)c1cc(C(F)(F)F)cc(C(F)(F)F)c1 ?
Response line: 52.5

Prompt line: So what does the record say about growth for CCC(C)(C)c1ccc(OCCCCCCN2CCN(c3ccc(C)c(Cl)c3)CC2)cc1 ?
Response line: 97.3

Prompt line: Reported growth, molecule N#Cc1ccc(OCc2nc(N)nc(N)c2-c2ccc(Cl)c(Cl)c2)cc1 : ____
Response line: 15.9

Prompt line: Bench note: what growth did CCS(=O)(=O)N[C@@H]1O[C@H](COC(C)=O)C(OC(C)=O)[C@H](OC(C)=O)C1OC(C)=O (some centres not stated) show?
Response line: 103

Prompt line: Fill in the blank: the reported growth of COc1ccc(C2C3(C#N)C(N)=NC(=C(C#N)C#N)C23C#N)cc1OC (configuration not stated) is ____.
Response line: 107

Prompt line: Return reported growth; argument: O=Nc1ccc(O)c2ccccc12
Response line: -63.8

###

- Test system: HCT-116 colon
- protocolNotes: NCI-60 one-dose screen, 48 h (100 = growth as untreated, 0 = no growth, -100 = all killed)
- conditionsUsed: 10 µM unless noted
This is part of a sample that, as a whole, favours compounds with a hit. Of some 83,000 tested, about 20% had one in any assay. Activity calls are given as the source filed them. Rule for the calls: active = growth percent below 10; inactive = the rest.
Can you tell me growth for the items I'm about to list?

Prompt line: Reported growth, molecule NNC(=S)N1N=C(c2cc3ccccc3o2)CC1c1c[nH]c2ccccc12 (stereo unspecified) : ____
Response line: 23.8% (inactive)

Prompt line: Fill in the blank: the reported growth of COc1ccc2cc(C(C)C(=O)Nc3ccc(S(=O)(=O)Nc4cc(C)on4)cc3)ccc2c1 (stereo unspecified) is ____.
Response line: 96.5% (inactive)

Prompt line: Dear colleague, I am looking for the recorded growth of the following molecule: O=C(CCl)c1ccc2c(c1)CCCC2
Response line: 84.2% (inactive)

Prompt line: Look up growth: C=CN(C)S(C)(=O)=O
Response line: 19.7% (inactive)

Prompt line: Look up growth for this molecule: CC(=O)/C(=C\c1c(-c2ccccc2)[nH]c2ccccc12)S(=O)(=O)c1ccccc1
Response line: 9.03% (active)

Prompt line: Request the reported growth associated with O=C(c1ccccc1)c1ccccc1-c1ccccc1
Response line: 14% (inactive)

###

- System: SW-620 colon
- protocolNotes: NCI-60 one-dose screen, 48 h
- conditionsUsed: 10 µM unless noted
About 83,000 compounds went through this panel and 20% of them were active in at least one assay; those are over-represented in the sample as a whole. Activity calls are given as the source filed them. Rule for the calls: active = growth percent below 10; inactive = the rest.
Thanks in advance; please answer with one of these: active, inactive

Prompt line: Please share the test call associated with CC(C)CCCCCOC(=O)c1ccccc1SSc1ccccc1C(=O)OCCCCCC(C)C .
Response line: inactive

Prompt line: Any idea what this test logged for COc1cc(N2C(=O)C=CC2=O)ccc1N1C(=O)C=CC1=O ?
Response line: inactive

Prompt line: For this compound, state the assay outcome: Nc1ccc(N=Nc2ccccc2)c2cc(S(=O)(=O)O)ccc12
Response line: inactive

Prompt line: Hello, I am checking results. What call was entered for CNc1ccc(Nc2ccc(S(=O)(=O)O)cc2)c2c1C(=O)c1ccccc1C2=O ?
Response line: inactive

Prompt line: I would be grateful if you could indicate the recorded call for CC(=O)CCS(=O)c1ccccc1 (stereo not given) .
Response line: inactive

Prompt line: Returns: the outcome recorded for COc1ccc(C2=C/C(=C\c3ccc(Cl)cc3)C(=O)NN2C(=S)NN)cc1 in this assay.
Response line: inactive

Prompt line: Hello, I am checking results. What call was entered for CCOC(=O)C1=NN(c2ccccc2)C2=NC(=O)/C(=C\c3cn(-c4ccccc4)nc3-c3cc4ccccc4o3)C(=O)N12 ?
Response line: inactive

Prompt line: Short answer needed: outcome of this test for COc1cc2ncnc(Nc3ccc4c(cnn4C(=O)Nc4ccccc4)c3)c2cc1OC ?
Response line: inactive

Prompt line: Each compound tested received a call. Report the one for O=C(Nc1ccc(-n2cc(-c3ccncc3)c(-c3ccc(Cl)c(O)c3)n2)cc1)c1ccc(Cl)c(Cl)c1 .
Response line: inactive

Prompt line: Outcome logged for Nc1ncn([C@@H]2O[C@H](CO)[C@@H](O)C2(F)F)c(=O)n1 in this assay:
Response line: inactive

Prompt line: Dear all, I need the recorded test outcome for CC1=C[C@@H]2c3c(c(O)c(O)c4oc5cc(O)cc(O)c5c(=O)c34)[C@@H](c3cc(O)c(O)c4oc5cc(O)cc(O)c5c(=O)c34)[C@@H]2C(C)(C)C1 , thank you.
Response line: active

Prompt line: Outcome logged for CCCCCCC(C(=O)OCC)(C(=O)OCC)C1CCCCCC1 in this assay:
Response line: inactive

Prompt line: Kindly provide the recorded test outcome for the following compound: CCCCCCCCCC[N+](C)(C)C
Response line: inactive

Prompt line: Give the logged outcome of this assay for the following compound: COC1NC(Cl)=C(C#N)C(C#N)(C#N)C1(C)C (stereo not given)
Response line: inactive

Prompt line: Recorded call for CC(=O)Nc1nc(C)c(C(=O)N/N=C/N2CCCCC2)s1 ?
Response line: inactive

Prompt line: What did this assay record as the result for BrCCCOc1ccc(Oc2ccc(OCCCBr)cc2)cc1 ?
Response line: inactive

Prompt line: Status in this test for Cc1ccc(NC(=O)CCl)cc1Cl ?
Response line: inactive

Prompt line: Record request — test call for CCCCCCCCCCCCCCCCNC(=S)N/N=C/c1ccc(O)cc1O
Response line: inactive

Prompt line: Outcome logged for Cc1c(Cc2ccccc2)c(=O)oc2c(C)c(OCc3n[nH]c(=S)o3)ccc12 in this assay:
Response line: active

Prompt line: Which result was noted for this compound in the test: Oc1ccc(N=Nc2ccc(N=Nc3ccccc3)cc2)cc1
Response line: inactive

###

- Tested on: SNB-19 CNS
- protocolNotes: NCI-60 one-dose screen, 48 h
- conditionsUsed: 10 µM unless noted
This is part of a sample that, as a whole, favours compounds with a hit. Of some 83,000 tested, about 20% had one in any assay. Calls of active or inactive are those of the source. The calls were made as follows: active = growth percent below 10; inactive = the rest.
Hi! Could you answer with just one of these? active, inactive

Prompt line: I would be grateful if you could indicate the recorded call for C=CCNCCC#N .
Response line: inactive

Prompt line: Give the logged outcome of this assay for the following compound: CCCCCCCCC/C(=N\NC(=O)c1ccncc1)c1ccc(O)c(O)c1O
Response line: inactive

Prompt line: Kindly provide the recorded test outcome for the following compound: N=C(N)N=Nc1ccc(NN=C(N)N)c2ccccc12
Response line: inactive

Prompt line: Outcome? N#CCc1ncc(-c2ccc(C(F)(F)F)cc2)c(NC2CCCCCC2)n1
Response line: inactive

Prompt line: Answer briefly: the call reported for CCN(CC)CCCNc1c2ccc(Cl)cc2nc2ccc(OC)cc12 in this assay.
Response line: inactive

Prompt line: # lookup: test call for C/C(CCC(=O)O)=N/Nc1ccc([N+](=O)[O-])cc1
Response line: inactive

Prompt line: Test call for this compound, please: COc1ccc2c(N)ncc(C#Cc3cc(C(=O)Nc4ccc(CN5CCN(C)CC5)c(C(F)(F)F)c4)cnc3C)c2c1
Response line: active

Prompt line: Name the outcome recorded for CCCCCCNC(=O)Oc1ccc(/C(=C(/C)Cc2ccc(OC)cc2)c2ccc(OCCN3CCCCC3)cc2)cc1 in the assay.
Response line: inactive

Prompt line: Please state the recorded outcome for this compound: CC(C)(C)c1ccc([I+]c2ccc(C(C)(C)C)cc2)cc1
Response line: inactive

Prompt line: Recorded test outcome, item COc1ccc2c(c1)cn1c3ccc(O)cc3[nH]c(=O)c21
Response line: inactive

Prompt line: I'd appreciate the recorded outcome for O=C(N/N=C/c1cc(Cl)ccc1O)C(=O)N/N=C/c1cc(Cl)ccc1O from this test.
Response line: inactive

Prompt line: # lookup: test call for COc1ccc2c(c1)/C(=C1/S/C(=N/c3nnc(C)s3)NC1=O)C(=O)N2Cc1ccc(Br)cc1
Response line: inactive

Prompt line: Give the logged outcome of this assay for the following compound: O=C(c1ccccc1)c1ccccc1-c1ccccc1
Response line: inactive

Prompt line: Can you look up the reported call for N#Cc1ccc(NC2c3ccccc3CC2O)cc1 (stereo not given) for me?
Response line: inactive

Prompt line: Look up the recorded call for O=c1c(N=Nc2nccs2)c(-c2ccccc2)[nH]n1-c1nc(-c2ccccc2)cs1 in this test.
Response line: inactive

Prompt line: What did the test return for CCC(CCCN1C(=O)c2ccccc2C1=O)Nc1cc(OC)cc2c(C)ccnc12 (stereo not given) ?
Response line: inactive

Prompt line: Per the assay record, what outcome was assigned to COc1cc(N)c2nccc(C)c2c1OC ?
Response line: inactive

Prompt line: Per the records of this test, what outcome belongs to O=C1C=C(OCC=C(C(F)(F)F)C(F)(F)F)c2ccccc2C1=O ?
Response line: inactive

Prompt line: How was CCCCCCCCc1ccc(CCC(N)(CO)CO)cc1 classified in this test?
Response line: inactive

Prompt line: Please share the test call associated with CC1=NN(c2cccc(Cl)c2)C(=O)/C1=C\c1cn(-c2nc(N3CCOCC3)nc(N3CCOCC3)n2)c2ccccc12 .
Response line: inactive
